Recorded EC50 by entry
- Test system: ZIKV replicon in Vero cells
- procedureDetails: ZIKV Replication Inhibition Assay (replicon, NanoLuc)
- conditionsUsed: Zika virus, Vero, 72 h, read-out: Zika Replicon EC50

- compound: "O=C([N-]c1c[n+](Cc2ccc(-c3cccnc3)cc2)no1)Nc1cccc(C(F)(F)F)c1"
  EC50: "100 to 1000 nM"
- compound: "Cc1ncnc(C)c1-c1ccc([C@H](C)[n+]2cc([N-]C(=O)Nc3ccnc(C(F)(F)F)c3)on2)cc1"
  EC50: "100 to 1000 nM"
- compound: "C[C@@H](c1ccc(Br)cc1)[n+]1cc([N-]C(=O)Nc2cccc(C(F)(F)F)c2)on1"
  EC50: "100 to 1000 nM"
- compound: "Cc1ccncc1-c1ccc(C[n+]2cc([N-]C(=O)Nc3cncc(C(F)(F)F)c3)on2)nc1"
  EC50: "100 to 1000 nM"
- compound: "CC(Cc1ccccc1)[n+]1cc([N-]C(=O)Nc2ccc(C(F)(F)F)cc2)on1 (centres unmarked)"
  EC50: "> 20000 nM"
